The measured values listed here are drawn from patent US12605461B2.

# Tested on: BT474 cells
# experimentNotes: Drug screening, BT474 (RealTime-Glo MT)
# Assay type: cell-based, human
# experimentalSetup: BT474 cells cultured in HA-oxime
parameterMeasured: IC50 (nM)
Write it as a number; the unit nM goes unstated.

Given item `O=C(c1ccccc1O)c1[nH]c(Cl)c(Cl)c1-n1c(C(=O)c2ccccc2O)cc(Cl)c1Cl` , the value recorded as its IC50 is 590

###

# System: BT474 cells
# experimentNotes: Drug screening, BT474 (RealTime-Glo MT)
# Format: cell-based, human
# experimentalSetup: BT474 cells cultured in 2D TCPS
parameterMeasured: IC50 (µM)
Write it as a number; the unit µM goes unstated.

Given item O=C(c1ccccc1O)c1[nH]c(Cl)c(Cl)c1-n1c(C(=O)c2ccccc2O)cc(Cl)c1Cl [maritoclax] , the value recorded as its IC50 is 5.5
